Values compiled from ChEMBL document CHEMBL1133549.

System: CH1
EXPERIMENTAL PROTOCOL: The compound was tested for cytotoxic activity against CH1 cell line(human ovarian carcinoma )
Format: functional, cell-based
pIC50: −log10 of the molar value.
Note to self: values exactly at 7 are t. So pIC50 at or above 7 is t, below is f.

// known answers, use as guide
smiles_structure=CN(C)CCCNC(=O)c1ccc(NCCCN(C)C)c2cc3ccccc3nc12 target_desc=CH1 category=f
smiles_structure=CN(C)CCNC(=O)c1ccc(NCCN(C)C)c2cc3ccccc3nc12 target_desc=CH1 category=t
smiles_structure=CCN(CC)CCNC(=O)c1ccc(NCCN(CC)CC)c2cc3ccccc3nc12 target_desc=CH1 category=f

## Task Would you say CN(C)CCNC(=O)c1ccc(NCCNCCO)c2cc3ccccc3nc12 shows pIC50 at minimum 7?
## Result t

## Task hey, is pIC50 for this one >= 7? CN(C)CCNC(=O)c1ccc(NCCN(C)C)c2c(=O)c3ccccc3[nH]c12
## Result t

## Task Tell me whether pIC50 is at least 7 here: CN(C)CCNC(=O)c1cccc2cc3ccccc3nc12
## Result f

## Task Please tell me: is the compound NCCNC(=O)c1ccc(NCCN)c2cc3ccccc3nc12 at or over 7 in terms of pIC50?
## Result f

###

Each entry below carries its reported log10 K app.
Test system: Nucleic Acid
EXPERIMENTAL PROTOCOL: Tested for binding affinity against AT from [poly(dA-dT)]2.
Format: nucleic-acid assay
Friendly reminder: values = log10 of K app, unit M⁻¹.

smiles_structure=CN(C)CCNC(=O)c1ccc(NCCNCCO)c2cc3ccccc3nc12 target_desc="Nucleic Acid" observed_value=7.65
smiles_structure=O=C(NCCN1CCOCC1)c1ccc(NCCN2CCOCC2)c2cc3ccccc3nc12 target_desc="Nucleic Acid" observed_value=6.70
smiles_structure=NCCNC(=O)c1ccc(NCCN)c2cc3ccccc3nc12 target_desc="Nucleic Acid" observed_value=7.34

Entry CN(C)CCNC(=O)c1ccc(NCCN(C)C)c2cc3cc(O)ccc3nc12 : log10 K app on Nucleic Acid = 7.49

Simply: CN(C)CCNC(=O)c1ccc(NCCN(C)C)c2cc3cc(N)ccc3nc12 , Nucleic Acid, log10 K app = 8.45

###

Test system: HT-29
EXPERIMENTAL PROTOCOL: The compound was tested for cytotoxic activity against HT-29 cell line(human colon adeno carcinoma)
Assay type: functional, cell-based
MEASURED PROPERTY: log10(IC50) (log10 of the value in nM)
Scale: log10; quantity: IC50; unit before log: nM

Worked cases, answers included:
smiles_structure=CN(C)CCNC(=O)c1cccc2cc3ccccc3nc12 target_desc=HT-29 observed_value=3.00
smiles_structure=CN(C)CCNC(=O)c1ccc(NCCN(C)C)c2cc3cc(O)ccc3nc12 target_desc=HT-29 observed_value=2.93
smiles_structure=CN(C)CCNC(=O)c1ccc(NCCN(C)C)c2c(=O)c3ccccc3[nH]c12 target_desc=HT-29 observed_value=1.97
smiles_structure=NCCNC(=O)c1ccc(NCCN)c2cc3ccccc3nc12 target_desc=HT-29 observed_value=3.84
smiles_structure=O=C(NCCN1CCOCC1)c1ccc(NCCN2CCOCC2)c2cc3ccccc3nc12 target_desc=HT-29 observed_value=3.43

Entry CN(C)CCNC(=O)c1ccc(Cl)c2cc3ccccc3nc12 , log10(IC50) reported as 2.90
